- Target System: PPAR delta (Homo sapiens)
- Sequence (Q03181 211-439 limits assumed): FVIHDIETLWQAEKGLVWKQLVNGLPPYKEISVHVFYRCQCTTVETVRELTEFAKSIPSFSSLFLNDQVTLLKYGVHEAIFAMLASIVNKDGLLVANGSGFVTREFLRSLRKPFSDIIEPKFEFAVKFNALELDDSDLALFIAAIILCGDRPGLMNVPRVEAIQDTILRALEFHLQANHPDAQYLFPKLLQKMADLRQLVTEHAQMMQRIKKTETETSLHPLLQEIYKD
- Procedure Details: Transient transfection (transactivation) assay in CV-1 cells, GAL4-PPAR chimera, luciferase reporter
pEC50: −log10 of the molar value.
Assay Endpoint: pEC50

Consider the following illustrative entries.
1. O=C(O)Cc1cccc(S(=O)(=O)N2CCN(c3ccc(OC(F)(F)F)cc3)CC2)c1 [Example 92] = > 5.30
2. C[C@H]1CN(S(=O)(=O)c2cccc(CC(=O)O)c2)CCN1c1ccc(C(F)(F)F)c(F)c1 [Example 218] = > 5.30

Prompt: Name the reported pEC50 value associated with the molecule Cc1cc(CC(=O)O)cc(S(=O)(=O)N2CCN(c3ccc(Cl)cc3)CC2)c1 [Example 167]
Response: > 5.30

Prompt: Check Cc1ccc(CC(=O)O)cc1S(=O)(=O)N1CCN(c2ccccc2C#N)CC1 [Example 162] too.
Response: < 4.00

Prompt: Check O=C(O)Cc1cc(COCCO)cc(S(=O)(=O)N2CCN(c3ccc(C(F)(F)F)cc3)CC2)c1 [Example 91] too.
Response: < 4.00

Prompt: Check O=C(O)Cc1cccc(S(=O)(=O)N2CCN(c3ccc([N+](=O)[O-])cc3)CC2)c1 [Example 135] too.
Response: 4.00 to 5.30

Prompt: Check Cc1ccc(S(=O)(=O)N2CCN(c3ccc(C(F)(F)F)cn3)CC2C)cc1CC(=O)O (stereo not shown) [Example 19] too.
Response: > 5.30

###

Each record here notes measured EC50.
- Target System: PPAR alpha (Homo sapiens, UniProt Q07869)
- Sequence (Q07869 239-466 limits assumed): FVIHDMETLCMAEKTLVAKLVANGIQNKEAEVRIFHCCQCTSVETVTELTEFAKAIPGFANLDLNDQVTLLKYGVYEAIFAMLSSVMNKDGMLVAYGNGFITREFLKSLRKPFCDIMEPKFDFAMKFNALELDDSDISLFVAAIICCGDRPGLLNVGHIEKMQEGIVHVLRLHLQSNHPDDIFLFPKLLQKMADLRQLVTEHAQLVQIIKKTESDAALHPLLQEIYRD
- Procedure Details: Transient transfection (transactivation) assay in CV-1 cells, GAL4-PPAR chimera, luciferase reporter

Consider the following illustrative entries.
1) Cc1ccc(S(=O)(=O)N2[C@H](C)CN(c3ccc(C(F)(F)F)cn3)C[C@@H]2C)cc1CC(=O)O = > 100 µM
2) C[C@H]1CN(c2ccc(OC(F)(F)F)cc2)CCN1S(=O)(=O)c1cccc(CC(=O)O)c1 = 5 to 100 µM

Prompt: Record lookup: for PPAR alpha (Homo sapiens, UniProt Q07869), what EC50 belongs to COc1ccc(S(=O)(=O)N2CCN(c3ccc(C(F)(F)F)cn3)CC2C)cc1CC(=O)O (stereo not shown) ?
Response: > 100 µM

Prompt: Check `Cc1cc(CC(=O)O)cc(S(=O)(=O)N2[C@H](C)CN(c3ccc(C(F)(F)F)c(F)c3)C[C@@H]2C)c1` too.
Response: 5 to 100 µM

Prompt: Check `C[C@@H]1CN(c2ccc(OC(F)(F)F)cc2)C[C@H](C)N1S(=O)(=O)c1ccc(O)c(CCC(=O)O)c1` too.
Response: > 100 µM

Prompt: Check `Cc1ccc(S(=O)(=O)N2CCN(c3ccc(C(F)(F)F)nc3)CC2)cc1CC(=O)O` too.
Response: > 100 µM

Prompt: Check `O=C(O)CSCc1cccc(S(=O)(=O)N2CCN(c3ccc(C(F)(F)F)cc3)CC2)c1` too.
Response: 5 to 100 µM

Prompt: Check C[C@@H]1[C@H](C)N(c2ccc(C(F)(F)F)cn2)CCN1S(=O)(=O)c1cccc(CC(=O)O)c1 (racemic) too.
Response: > 100 µM

Prompt: Check `C[C@H]1CN(c2ccc(C(F)(F)F)c(F)c2)CCN1S(=O)(=O)c1cccc(CC(=O)O)c1` too.
Response: 5 to 100 µM

Prompt: Check `Cc1cc(CC(=O)O)cc(S(=O)(=O)N2C3CCC2CN(c2ccc(OC(F)(F)F)cc2)C3)c1` too.
Response: 5 to 100 µM

Prompt: Check `COc1ccc(CC(=O)O)cc1S(=O)(=O)N1CCN(c2ccc(C(F)(F)F)cn2)CC1` too.
Response: > 100 µM

Prompt: Check `N#Cc1ccccc1N1CCN(S(=O)(=O)c2cccc(CC(=O)O)c2)CC1` too.
Response: > 100 µM

Prompt: Check `Cc1ccc(S(=O)(=O)N2CCN(c3ncc(C(F)(F)F)cn3)CC2)cc1CC(=O)O` too.
Response: < 5 µM

Prompt: Check `Cc1ccc(S(=O)(=O)N2CCN(c3ccc(Cl)cn3)CC2)cc1CC(=O)O` too.
Response: > 100 µM

Prompt: Check `Cc1ccc(S(=O)(=O)N2CCCN(c3ncccc3C(F)(F)F)CC2)cc1CC(=O)O` too.
Response: > 100 µM

Prompt: Check `Cc1ccc(S(=O)(=O)N2CCN(c3cc(C(F)(F)F)ccn3)CC2)cc1CC(=O)O` too.
Response: 5 to 100 µM

###

Each record here notes measured EC50.
- Target System: PPAR gamma (Homo sapiens, UniProt P37231)
- Sequence (P37231 238-503 limits assumed): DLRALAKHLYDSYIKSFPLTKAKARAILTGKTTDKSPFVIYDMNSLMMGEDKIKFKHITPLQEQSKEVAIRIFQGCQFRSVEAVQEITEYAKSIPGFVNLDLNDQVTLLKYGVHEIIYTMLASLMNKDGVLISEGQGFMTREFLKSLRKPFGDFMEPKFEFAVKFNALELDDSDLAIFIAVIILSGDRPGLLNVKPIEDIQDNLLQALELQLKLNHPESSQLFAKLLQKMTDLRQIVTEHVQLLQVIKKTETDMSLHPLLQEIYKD
- Procedure Details: Transient transfection (transactivation) assay in CV-1 cells, GAL4-PPAR chimera, luciferase reporter

Consider the following illustrative entries.
1. Cc1ccc(S(=O)(=O)N2CC=C(c3ccc(C(F)(F)F)cn3)CC2)cc1CC(=O)O = > 100 µM
2. Cc1ccc(CC(=O)O)cc1S(=O)(=O)N1CCN(c2ccc(C(C)(C)C)cc2)CC1 = 5 to 100 µM

Prompt: Name the reported EC50 value associated with the compound `Cc1cc(CC(=O)O)cc(S(=O)(=O)N2CCN(c3ccc(Cl)cc3)CC2)c1`
Response: 5 to 100 µM

Prompt: Check `Cc1ccc(S(=O)(=O)N2CCC(c3ccc(Cl)cc3)CC2)cc1CC(=O)O` too.
Response: > 100 µM

###

- Target System: PPAR gamma (Homo sapiens)
- Sequence (P37231 238-503 limits assumed): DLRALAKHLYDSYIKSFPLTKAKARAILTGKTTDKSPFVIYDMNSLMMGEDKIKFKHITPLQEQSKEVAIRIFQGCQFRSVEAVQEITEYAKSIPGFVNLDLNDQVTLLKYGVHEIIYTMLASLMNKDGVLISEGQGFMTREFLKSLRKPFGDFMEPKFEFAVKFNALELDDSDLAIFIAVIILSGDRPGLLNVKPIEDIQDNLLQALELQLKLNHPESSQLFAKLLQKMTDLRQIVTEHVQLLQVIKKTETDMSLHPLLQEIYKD
- Procedure Details: Transient transfection (transactivation) assay in CV-1 cells, GAL4-PPAR chimera, luciferase reporter
pEC50: −log10 of the molar value.
Assay Endpoint: pEC50

Consider the following illustrative entries.
1) O=C(O)CCc1cccc(S(=O)(=O)N2CCN(c3ccc(Cl)cc3)CC2)c1 = 4.00 to 5.30
2) COc1ccc(CC(=O)O)cc1S(=O)(=O)N1[C@H](C)CN(c2ccc(C(F)(F)F)cn2)C[C@@H]1C = < 4.00
3) Cc1ccc(S(=O)(=O)N2CCN(c3ccc(C(F)(F)F)cn3)[C@H](C)C2)cc1CC(=O)O (single isomer, unassigned) = > 5.30
4) Cc1ccc(Cl)cc1N1CCN(S(=O)(=O)c2cc(CC(=O)O)ccc2C)CC1 = 4.00 to 5.30
5) O=C(O)Cc1cc(C(F)(F)F)cc(S(=O)(=O)N2CCN(c3ccc(C(F)(F)F)cn3)CC2)c1 = 4.00 to 5.30

Prompt: Name the reported pEC50 value associated with the compound `N#Cc1ccc(N2CCN(S(=O)(=O)c3cccc(CC(=O)O)c3)CC2)cc1`
Response: < 4.00

Prompt: Check `Cc1ccc(N2CCN(S(=O)(=O)c3cc(CC(=O)O)ccc3C)CC2)c(C)c1` too.
Response: < 4.00

Prompt: Check COc1ccc(CC(=O)O)cc1S(=O)(=O)N1CCN(c2ccc(C(F)(F)F)cn2)CC1C (centres unmarked) too.
Response: 4.00 to 5.30

Prompt: Check `Cc1ccc(CC(=O)O)cc1S(=O)(=O)N1CCN(CCc2ccccc2)CC1` too.
Response: 4.00 to 5.30

Prompt: Check `CCc1ccc(N2CCN(S(=O)(=O)c3ccc(C)c(CC(=O)O)c3)CC2)cc1` too.
Response: 4.00 to 5.30

Prompt: Check `Cc1cc(CC(=O)O)cc(S(=O)(=O)N2CCN(c3ccc(OC(F)(F)F)cc3)[C@@H](C)C2)c1` too.
Response: 4.00 to 5.30

Prompt: Check `O=C(O)Cc1cccc(S(=O)(=O)N2CCN(C(=O)c3ccco3)CC2)c1` too.
Response: < 4.00

Prompt: Check CCC1CN(c2ccc(C(F)(F)F)cn2)CCN1S(=O)(=O)c1ccc(C)c(CC(=O)O)c1 (centres unmarked) too.
Response: 4.00 to 5.30

Prompt: Check `C[C@@H]1CN(c2ccc(OC(F)(F)F)cc2)C[C@H](C)N1S(=O)(=O)c1ccc(O)c(CCC(=O)O)c1` too.
Response: < 4.00

Prompt: Check `CC(C)(OCc1cccc(S(=O)(=O)N2CCN(c3ccc(C(F)(F)F)cc3)CC2)c1)C(=O)O` too.
Response: 4.00 to 5.30

Prompt: Check `O=C(O)CSCc1cccc(S(=O)(=O)N2CCN(c3ccc(C(F)(F)F)cc3)CC2)c1` too.
Response: 4.00 to 5.30

Prompt: Check `O=C(O)Cc1cccc(S(=O)(=O)N2CCN(c3ccc(C(F)(F)F)cc3Br)CC2)c1` too.
Response: < 4.00

Prompt: Check `Cc1cc(CC(=O)O)cc(S(=O)(=O)N2[C@H](C)CN(c3ccc(C(F)(F)F)c(Cl)c3)C[C@@H]2C)c1` too.
Response: < 4.00

Prompt: Check `Cc1ccc(S(=O)(=O)N2CCN(c3ccc(OC(F)(F)F)cc3)CC2)cc1CC(=O)O` too.
Response: 4.00 to 5.30

Prompt: Check `Cc1ccc(S(=O)(=O)N2CCN(c3ccc(OC(F)(F)F)cc3)[C@@H](C)C2)cc1CC(=O)O` too.
Response: 4.00 to 5.30

Prompt: Check `O=C(O)Cc1cccc(S(=O)(=O)N2CCN(c3cccc(Cl)c3)CC2)c1` too.
Response: 4.00 to 5.30

Prompt: Check `COC(=O)[C@H]1CN(S(=O)(=O)c2ccc(C)c(CC(=O)O)c2)CCN1c1ccc(C(F)(F)F)cn1` too.
Response: 4.00 to 5.30

Prompt: Check `Cc1cc(CC(=O)O)cc(S(=O)(=O)N2CCN(c3ccc(F)cc3F)CC2)c1` too.
Response: < 4.00

Prompt: Check `Cc1ccc(S(=O)(=O)N2CC=C(c3ccc(C(F)(F)F)cc3)CC2)cc1CC(=O)O` too.
Response: 4.00 to 5.30
